System: ATP;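 note: ATP exposure 15 min at 22 °C before imaging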
Method description: switch fluorescence ratio, 500 uM ATP over buffer (Cy3 cluster intensity, sum of 5 cycles each) (fold (ratio)); higher = stronger signal-on switching upon ATP binding; sequences stand for … in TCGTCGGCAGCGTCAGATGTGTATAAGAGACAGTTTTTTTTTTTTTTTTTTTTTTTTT…TC
Test context: aptamer strand: ATP DNA aptamer (quencher-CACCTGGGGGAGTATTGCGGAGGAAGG + anchor), 100 nM annealed; ATP concentration: 500 uM
Measurement kind: switch fluorescence ratio
Please give the numeric answer without any surrounding text.

Name the reported switch fluorescence ratio value associated with the sequence TTTTTGCTGG
0.99

Now consider TGTGTGAGGT and answer again.
1.06

Now consider GGCAAAGGGT and answer again.
1.06

Now consider ATGTAACTCG and answer again.
1.03
